Data origin: patent US12617756B2

Test system: RSV A2
test_name: Screening for RSV inhibition using Viral ToxGlo assay (cytopathic effect inhibition in HEp-2 cells)
Format: cell-based, Respiratory Syncytial Virus (RSV)
experimental_conditions: human respiratory syncytial virus; RSV A2 in HEp-2 cells, MOI 0.5, 72h p.i., cytopathic effect inhibition relative to virus control, Viral ToxGlo luminescence
measured_quantity: EC50 (nM)
Write the answer as a number in nM, unit excluded.

Please review the following examples before continuing.
Q: Reported EC50, compound CC(C)(C)c1cc(C(=O)N=C2NCCN2)ccc1Nc1cccc(OCC2COCCO2)c1 (stereo not shown) : ____
Result: 142

Q: Reported EC50, compound "O=C(N=C1NCCN1)c1ccc(Nc2cc(F)cc(C(=O)N3CCOCC3)c2)c(C2CC2)c1" : ____
Result: 1290

Q: Reported EC50, compound "O=C(N=C1NCCN1)c1cc(F)c(Nc2cccc(C(=O)N3CCOCC3)c2F)c(C2CC2)c1" : ____
Result: 6.8

Q: Reported EC50, compound CC1(NC(=O)c2cccc(Nc3c(F)cc(C(=O)N=C4NCCN4)cc3C3CCCO3)c2Cl)CC1 (stereo not shown) : ____
Result: 28.7

Q: Reported EC50, compound "CC1(NC(=O)c2cccc(Nc3ccc(C(=O)N=C4NCCN4)cc3C3CC3)c2)CC1" : ____
Result: 14.4

Q: Reported EC50, compound "CC1(NC(=O)c2nccc(Nc3ccc(C(=O)N=C4NCCN4)cc3C3CC3)c2Cl)CC1" : ____
Result: 263

Q: Reported EC50, compound "CC(C)NC(=O)c1cccc(Nc2ccc(C(=O)/N=C3\NCC(=O)N3C)cc2C2CC2)c1" : ____
Result: 516

Q: Reported EC50, compound "CC(C)=CCn1nnc(-c2cccc(Nc3ccc(C(=O)/N=C4\NCCN4C)cc3C3CC3)c2)n1" : ____
Result: 545

More entries:
Q: Reported EC50, compound "CC1(NC(=O)c2cccc(Nc3c(F)cc(C(=O)N=C4NCCN4)cc3C3CC3)c2F)CC1" : ____
Result: 59.7

Q: Reported EC50, compound "CC(C)NC(=O)c1cccc(Nc2ccc(C(=O)N=C3NCCN3)cc2C2CCOCC2)c1" : ____
Result: 1130

Q: Reported EC50, compound "O=C(N=C1NCCN1)c1ccc(Nc2cccc(C(=O)N3CCOCC3)c2C(F)(F)F)c(C2CC2)c1" : ____
Result: 29.6

Q: Reported EC50, compound "CC(C)CCNC(=O)c1ccnc(Nc2ccc(C(=O)N=C3NCCN3)cc2C(C)(C)C)c1" : ____
Result: 168
